Molecular target: human ether-à-go-go-related gene (hERG) potassium channel (human);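 also: peak tail current of the secondary pulse compared with the same well before compound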
Assay: primary screen, population patch clamp on CHO cells stably expressing hERG; higher = less effect of the substance
About 14,000 (4.5%) of roughly 310,000 compounds showed an effect of 50% or more. Effects have a minus sign here. Only a selection was taken, and strong results are over-represented in it overall.
Label true when hERG current change (%, negative = inhibition) at 10uM is at or above -60%; anything below gets false.

entry-smiles: CN(C)c1ccc(NC(=O)CN2CCN(c3ccc(F)cc3)CC2)cc1
category: true

entry-smiles: Clc1ccc(OCCCCCN2CCCC2)c(Br)c1
category: false

entry-smiles: CN(C)c1ccc(NC(=O)CN2CCC(C(=O)c3ccc(F)cc3)CC2)cc1
category: true

entry-smiles: CCc1c(C)sc(NC(=O)/C=C/C(=O)O)c1C(N)=O
category: true

Dear colleague, could you confirm whether `CCN1CCN(CCCOc2ccc(Cl)cc2Br)CC1.O=C(O)C(=O)O` has hERG current change (%, negative = inhibition) at 10uM at or above -60%? false

====

Measured hERG current change (%, negative = inhibition) at 10uM, listed per entry.
Target: human ether-à-go-go-related gene (hERG) potassium channel (human, UniProt Q12809);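 also: peak tail current of the secondary pulse compared with the same well before compound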
Sequence (Q12809 whole entry, looked up): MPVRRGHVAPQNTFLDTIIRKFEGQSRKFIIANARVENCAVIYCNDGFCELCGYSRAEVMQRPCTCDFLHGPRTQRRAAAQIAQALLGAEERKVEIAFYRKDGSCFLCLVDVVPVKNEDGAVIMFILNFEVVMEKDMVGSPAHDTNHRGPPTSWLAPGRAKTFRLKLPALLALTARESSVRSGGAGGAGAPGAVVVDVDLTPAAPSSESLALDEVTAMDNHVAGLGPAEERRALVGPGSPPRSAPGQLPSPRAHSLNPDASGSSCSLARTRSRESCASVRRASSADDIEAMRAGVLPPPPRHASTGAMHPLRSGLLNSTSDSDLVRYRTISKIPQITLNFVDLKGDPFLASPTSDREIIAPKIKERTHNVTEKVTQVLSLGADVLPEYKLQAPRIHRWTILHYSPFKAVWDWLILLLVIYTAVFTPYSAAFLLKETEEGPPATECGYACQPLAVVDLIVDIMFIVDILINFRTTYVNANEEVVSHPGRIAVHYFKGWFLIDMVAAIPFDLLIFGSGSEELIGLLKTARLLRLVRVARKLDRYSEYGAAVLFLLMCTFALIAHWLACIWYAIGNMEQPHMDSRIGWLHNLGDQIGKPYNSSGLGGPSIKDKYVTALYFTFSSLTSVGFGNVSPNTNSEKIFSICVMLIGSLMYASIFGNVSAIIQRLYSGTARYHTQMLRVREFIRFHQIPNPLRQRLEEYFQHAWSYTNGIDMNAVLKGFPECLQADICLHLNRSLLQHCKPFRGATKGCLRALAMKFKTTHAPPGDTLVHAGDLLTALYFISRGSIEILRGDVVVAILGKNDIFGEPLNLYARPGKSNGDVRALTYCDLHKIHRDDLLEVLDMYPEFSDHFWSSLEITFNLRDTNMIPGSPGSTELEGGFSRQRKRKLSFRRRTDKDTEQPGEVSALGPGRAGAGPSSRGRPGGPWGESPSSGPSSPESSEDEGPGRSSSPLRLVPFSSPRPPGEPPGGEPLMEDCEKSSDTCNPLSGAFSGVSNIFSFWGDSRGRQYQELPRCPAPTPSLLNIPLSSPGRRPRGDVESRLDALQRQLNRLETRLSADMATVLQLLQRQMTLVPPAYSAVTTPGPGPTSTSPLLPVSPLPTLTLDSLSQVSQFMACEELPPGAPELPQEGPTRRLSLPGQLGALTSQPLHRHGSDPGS
Test: primary screen, population patch clamp on CHO cells stably expressing hERG; higher = less effect of the substance
Description: Briefly, Chinese hamster ovary (CHO) cells stably expressing the hERG channel were dislodged from tissue culture flasks and dispensed into PPC plates. […] During the recording, background leak currents were estimated by a 100 ms step to -80 mV from an initial holding potential of -70 mV and subtracted from the subsequent current measurement. The campaign was conducted in two phases using slight differences in recording protocol. […]
The whole screen tested about 310,000 compounds, of which about 14,000 (4.5%) showed an effect of 50% or more. The effect is printed as a negative number. Only a selection was taken, and strong results are over-represented in it overall.
A number alone suffices; assume %.

molecule: Cc1c(C(=O)OCC(=O)c2ccc3c(c2)OCCO3)oc2ccccc12
unit: %
measured-value: 4.75
--
molecule: CC(C)C(=O)NCCc1nc(-c2ccccc2Cl)no1
unit: %
measured-value: 16.1
--
molecule: CCN(CC)c1ccc(NC(=O)CSc2nnc3nc(C)cc(C)n23)cc1
unit: %
measured-value: -0.579

Now look at this one.
Could you share what hERG current change (%, negative = inhibition) at 10uM was measured for `Cc1ccc2c(c1)c1nnc(SCC(=O)N3CCCc4ccccc43)nc1n2CC(=O)O` , tested on human ether-à-go-go-related gene (hERG) potassium channel (human, UniProt Q12809)? 20.2

====

Measured hERG current change (%, negative = inhibition) at 10uM, listed per entry.
Biological target: human ether-à-go-go-related gene (hERG) potassium channel (human, UniProt Q12809);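 also: peak tail current of the secondary pulse compared with the same well before compound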
Experiment: primary screen, population patch clamp on CHO cells stably expressing hERG; higher = less effect of the substance
The campaign covered roughly 310,000 compounds. About 14,000 (4.5%) showed an effect of 50% or more. Effects have a minus sign here. The full list was thinned out, with strong results kept by preference.
A number alone suffices; assume %.

entry-smiles: O=C(Nc1ccc(N2CCOCC2)cc1)c1cc2ccccc2o1
measured-value: 4.38
--
entry-smiles: CC(=O)N1CCN(c2ccc(NC(=O)c3ccc4ccccc4c3)cc2)CC1
measured-value: -7.05

Could you share what hERG current change (%, negative = inhibition) at 10uM was measured for `O=C(NC(=S)Nc1ccc(CN2CCOCC2)cc1)c1ccc(-c2cccc(Cl)c2)o1` , tested on human ether-à-go-go-related gene (hERG) potassium channel (human, UniProt Q12809)? 7.11
